Numbers sourced from the Human Domainome abundance scans (Beltran et al. 2025).

B1: E3 ubiquitin-protein ligase NEDD4, residues 836 to 881; numbered along this chain, P46934 (parent)
chain: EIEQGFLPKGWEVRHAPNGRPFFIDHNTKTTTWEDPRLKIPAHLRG

Variants of: B1
Assay: abundance fitness (aPCA) (normalised: wild type 0, dead -1); higher = more abundant; growth selection in yeast, the domain comes from the species named
Details: Homo sapiens
Label rule, in plain words: abundance fitness of -0.6 and up is YES, under -0.6 is NO.

Observe how each entry below is paired with its result.
{"mutation notation": "T28W", "label value": "NO"}
{"mutation notation": "P36N", "label value": "NO"}

Test whether the variant P21K records abundance fitness of -0.6 or higher.
YES

Does I40N have a reported abundance fitness of at least -0.6?
YES

Please indicate if the recorded abundance fitness for E34R meets or exceeds -0.6.
YES

Exam item: decide whether the reported abundance fitness for N18G is at least -0.6.
YES

Is reported abundance fitness greater than or equal to -0.6 here: T32G
NO

Could you verify whether the entry K39D shows abundance fitness of no less than -0.6?
YES

Does abundance fitness meet or surpass -0.6 for N27L ?
YES
